- Test system: Cutibacterium acnes (DMST 14916)
- TEST_NAME: MIC and MBC by modified broth microdilution
- Assay type: cell-based
- SETUP_CONDITIONS: C. acnes
Consider the following molecules; for each one, report its MBC.

Below, 2 molecules whose answers are already recorded.
- Cc1onc(-c2ccccc2)c1C(=O)N[C@@H]1C(=O)N2[C@@H]1SC(C)(C)[C@@H]2C(=O)O [Oxa, Oxacillin, reference compound]: 0.5 µg/mL
- Oc1cc(O)cc(/C=C/c2ccc(O)c(O)c2)c1 [Compound 5, piceatannol]: > 256 µg/mL

Here are 4 molecules. What values of MBC were reported for them?
1. CC(C)=CCc1c(O)cc(-c2cc3ccc(O)cc3o2)cc1O [Compound 3, moracin C]
2. Oc1cc(O)cc(CCc2ccc(O)c(O)c2)c1 [Compound 4, 3,4, 3′, 5′-tetrahydroxybibenzyl]
3. CC(=CCc1c(O)cc(-c2cc3ccc(O)cc3o2)cc1O)CO [Compound 1, ω-Hydroxymoracin C]
4. Oc1cc(O)cc(-c2cc3ccc(O)cc3o2)c1 [Compound 2, moracin M]

OUTPUT:
1. > 256 µg/mL
2. > 256 µg/mL
3. > 256 µg/mL
4. > 256 µg/mL
